test system: SN12C renal; assay: NCI-60 one-dose screen, 48 h (100 = growth as untreated, 0 = no growth, -100 = all killed); conditions: 10 µM unless noted
About 83,000 compounds went through this panel and 20% of them were active in at least one assay; those are over-represented in the sample as a whole.
growth for assorted molecules
Answer format: numeric, % implied, no suffix.

Recorded growth, per entry:
[[record]]
molecule = "CCCCCN1C=C/C(=C\\C(=O)N2CCCc3ccccc32)c2ccccc21"
attribute_measured = "growth"
result_value = 89.9

[[record]]
molecule = "Nc1ccccc1NC(=O)c1ccc(-n2nc(-c3ccccc3)c3ccccc32)cc1"
attribute_measured = "growth"
result_value = 52.3

[[record]]
molecule = "CC(=O)O[C@H]1Cc2c([nH]c3ccccc23)[C@@H](c2ccc(Cl)cc2)N1C(=O)CCNC(C)(C)C"
attribute_measured = "growth"
result_value = 58.4


In the following, a different molecule is considered.
query: Entry CCCCCCCC(=O)OCC/C=C/C1OC1C1OC(=O)/C=C\C=C\C(=O)N(C(C)=O)C(=O)/C=C(/C)CCC2OC2C1OC(=O)NC(C)=O (stereo not drawn) , system SN12C renal: what growth was measured?
result: 63.2

====

Test system: T-47D breast
Assay: NCI-60 one-dose screen, 48 h
Settings: 10 µM unless noted
Protocol: Growth inhibition of the T-47D human tumor cell line is measured as a screen for anti-cancer activity. Cells are grown in 96 well plates and exposed to the test compound for 48 hours. Compounds are tested at a single concentration, which is 10^-5 M for most compounds. The reported endpoint is percent growth (GI% or GIPRCNT), where numbers from 0 - 100% represent growth inhibition, and numbers from -100% - 0 represent cell death. For example, a value of 40 represents 60% growth inhibition. […]
This is part of a sample that, as a whole, favours compounds with a hit. Of some 83,000 tested, about 20% had one in any assay. Active and inactive are the calls of the source. The calls were made as follows: active = growth percent below 10; inactive = the rest.
Result category, one only: active, inactive

Study these solved cases before continuing.
[[record]]
chemical_string = "COc1ccc2nc(-c3ccc(-c4noc(-c5cc(OC)c(OC)c(OC)c5)n4)cc3)[nH]c2c1"
assayed_system = "T-47D breast"
assigned_label = "inactive"

[[record]]
chemical_string = "COc1ccc(OC)c(CCn2cncc2-c2c[nH]c3ccccc23)c1"
assayed_system = "T-47D breast"
assigned_label = "inactive"

[[record]]
chemical_string = "N/C(=N\\C(N)=N\\c1nc2ccccc2s1)c1ccnc(Br)c1"
assayed_system = "T-47D breast"
assigned_label = "inactive"

[[record]]
chemical_string = "COc1cc2cc(Oc3cccc(NC(=O)Nc4cc(C(F)(F)F)cc(C(F)(F)F)c4)c3)c(C)nc2cc1OC"
assayed_system = "T-47D breast"
assigned_label = "active"


Now, please, on to the next compound.
query: Returns: the outcome recorded for COc1cc2c3c(c4c5ccccc5[nH]c4c2c(OC)c1OC)C(=O)N(CCN1CCOCC1)C3=O in this assay.
result: inactive

====

tested on: K-562 leukemia; assay: NCI-60 one-dose screen, 48 h (100 = growth as untreated, 0 = no growth, -100 = all killed); conditions: 10 µM unless noted
This is part of a sample that, as a whole, favours compounds with a hit. Of some 83,000 tested, about 20% had one in any assay.
Yes means recorded growth is 20% or above; No means it is below 20%.

# example entries with known answers
[[record]]
chemical_string = "O=C(CCN1CCCC1)Nc1ccc2c(NCCc3ccccc3)c3ccccc3nc2c1"
assayed_system = "K-562 leukemia"
assigned_label = "No"

[[record]]
chemical_string = "NS(=O)(=O)c1ccc(Cn2c(SCC(=O)N/N=C/c3ccccc3O)nc3ccccc3c2=O)cc1"
assayed_system = "K-562 leukemia"
assigned_label = "Yes"

[[record]]
chemical_string = "CC(=O)O[C@H]1Cc2c([nH]c3ccccc23)[C@@H](c2ccc(Cl)cc2)N1C(=O)CCNC(C)(C)C"
assayed_system = "K-562 leukemia"
assigned_label = "No"

[[record]]
chemical_string = "O=S(=O)(NCCCNc1nccc(-c2c(-c3cccc(F)c3)nc3sccn23)n1)c1cccc2ccccc12"
assayed_system = "K-562 leukemia"
assigned_label = "No"

[[record]]
chemical_string = "Cc1cnc(C(=O)Nc2nc3ccc(S(=O)(=O)Nc4ccc(C(C)(C)C)cc4)cc3[nH]2)cn1"
assayed_system = "K-562 leukemia"
assigned_label = "No"


query: I'd appreciate it if you could say whether Brc1ccc2[nH]cc(-c3cncn3CCc3ccccc3)c2c1 has growth at least equal to 20%.
result: Yes
